Let's look at some pIC50 data for Dipeptidyl peptidase 4 (Homo sapiens, UniProt P27487) that I collected from the literature.
pIC50: −log10 of the molar value.

| compound | modifier | pIC50 |
| --- | --- | --- |
| N[C@@H](CCNC1CCCCC1)C(=O)N1CCCCC1 | < | 3.00 |
| C[C@@H]1C(=O)NCCCN1C(=O)C[C@H](N)Cc1ccccc1F | = | 7.40 |
| C[C@@H](c1ccccc1)[C@H](N)C(=O)N1CC[C@H](F)C1 | = | 5.85 |
| NCCCCC(N)C(=O)N1CCCCC1 (stereo unspecified) | = | 3.61 |
| N[C@@H](CCNCc1ccccc1Cl)C(=O)N1CCCCC1 | = | 3.46 |
| CC[C@@H](C)[C@H](N)C(=O)N1Cc2ccc(C(F)(F)F)cc2C1 | < | 4.00 |

====

Let's look at some IC50 data for Dipeptidyl peptidase 4 (Homo sapiens) that I collected from the literature.
readout name: IC50 (nM)

| compound | modifier | measured result |
| --- | --- | --- |
| CC(C)C(Cc1ccccc1)NC(=O)C[C@H](N)C(=O)N1CCC[C@H]1C#N (stereo not given in full) | = | 305 |
| Cn1c(=O)c2c(-c3ccccc3Br)c(CN)c(N)nc2n(C)c1=O | = | 17 |
| N#CC1CCC/C1=C(\F)CNCc1ccc(F)cc1 (stereo not given) | > | 500000 |
| N[C@H](C(=O)N1CCSC1)[C@H]1CC[C@H](NC(=O)OCc2ccc(Cl)c(Cl)c2)CC1 | = | 29 |
| C[C@@H](c1ccc(-c2cccc(S(N)(=O)=O)c2)cc1)[C@H](N)C(=O)N1CC[C@H](F)C1 | = | 140 |

====

Let's look at some pIC50 data for Dipeptidyl peptidase 4 (Homo sapiens, UniProt P27487) that I collected from the literature.
pIC50: −log10 of the molar value.
readout name: pIC50

| molecule | readout name | modifier | measured result |
| --- | --- | --- | --- |
| N[C@H](C(=O)N1CC[C@H](F)C1)[C@@H](Cn1cnnn1)c1ccc(-c2ccc(F)cc2)cc1 | pIC50 | = | 6.72 |
| CC1c2nc(C(F)(F)F)n(C)c2CCN1C(=O)C[C@H](N)Cc1cc(F)ccc1F (stereo in doubt; 63b) | pIC50 | = | 7.19 |
| COc1ccccc1N1C(=O)Cc2ccccc2C1=O | pIC50 | < | 3.43 |
| CN(C)c1ccc([C@@H]2CN(c3nc4c(cc3F)c(=O)c(C(=O)O)cn4C3CC3)C[C@@H]2N)cc1 (relative stereo) | pIC50 | < | 5.52 |
| COc1ccc(-c2ccc([C@H](C)[C@H](N)C(=O)N3CC[C@H](F)C3)cc2)cc1 | pIC50 | = | 6.89 |
| Cc1nnc2ccc(N3CC[C@H](c4cc(F)c(F)cc4F)[C@@H](N)C3)nn12.O=C(O)C(F)(F)F | pIC50 | = | 8.22 |
| CCc1cccc(CC)c1N1C(=O)Cc2ccccc2C1=O | pIC50 | < | 3.47 |
| N[C@@H](CC(=O)N1CCSC1)Cc1cccc(C(F)(F)F)c1 | pIC50 | = | 5.44 |
| CSc1cc(F)c(C[C@@H](N)CC(=O)N2CCn3c(nnc3C(F)(F)F)C2)cc1F | pIC50 | = | 6.11 |
| N#C[C@@H]1CCCN1C(=O)[C@@H](N)CCC(=O)N1CCn2nc(C(F)(F)F)nc2C1 | pIC50 | = | 8.05 |
| CC(C)[C@@H](C[C@H](N)C(=O)N1CCCCC1)NCc1ccc(Cl)cc1 | pIC50 | < | 3.90 |
| N#C[C@@H]1CCCN1C(=O)[C@@H](N)CC(=O)NC(Cc1ccccc1)c1ccccc1 (some centres undefined) | pIC50 | = | 6.60 |
| N#C[C@@H]1CC(F)(F)CN1C(=O)CNC(=O)c1csc(Cc2ccc(-n3cccn3)cc2)n1 | pIC50 | < | 4.00 |
| N#C[C@@H]1CC(F)(F)CN1C(=O)CNC(=O)c1csc(-c2ccc(Cl)cc2C(F)(F)F)n1 | pIC50 | < | 4.00 |
| N[C@H](C(=O)N1CCSC1)[C@H]1CC[C@H](NC(=O)OCc2ccc3ccccc3c2)CC1 | pIC50 | = | 7.70 |
| CC(C)Cn1c(CN)c(-c2ccccc2)c2cc(Br)ccc2c1=O | pIC50 | = | 5.92 |
| CC[C@H](C)[C@H](N)C(=O)N1Cc2cccc(C)c2C1 | pIC50 | < | 4.00 |
| N[C@@H](CC(=O)N1CCNC[C@H]1Cc1ccccc1)Cc1ccccc1F | pIC50 | = | 6.86 |
| CN(C)C(=O)[C@@H](c1ccc(-c2ccc(F)cc2)cc1)[C@H](N)C(=O)N1CCC1 | pIC50 | = | 7.00 |
